Measured % inhibition at T=4H and T=24H FP 4h accompanies every entry in the list below.
Molecular target: HLA-A0201 (Homo sapiens, UniProt P04439, D140Y/D185E/D98H/E176V/E277Q/G131W/G231S/I119V/I121R/I166T/I218V/L300P/L318F/N151K/N90K/P208A/P217A/Q86G/Q94H/R138H/R169H/T345S)
Assay type: binding
The answer is to be given in %; state only the numeric part.

Solved cases (3 shown):
substance=[am-phg][2-AOC]YDFFVWL unit_of_measure=% endpoint_result=94
substance=[am-phg][NVA]YDFFVW[PRG] unit_of_measure=% endpoint_result=88
substance=[am-phg]AAGIGI[4-FPHE]TV unit_of_measure=% endpoint_result=62

Task: Query (substance): [CSME][CpALA]YDFFVW[PRG] ; field requested: % inhibition at T=4H and T=24H FP 4h
Result: 85

Task: Return reported % inhibition at T=4H and T=24H FP 4h; argument: [PHG][NVA]YDFFVWL
Result: 79

Task: Which measured % inhibition at T=4H and T=24H FP 4h value corresponds to [PHG][2-AOC]YDFFVWL ?
Result: 90

Task: Fill in the blank: the reported % inhibition at T=4H and T=24H FP 4h of [PHG][NLE]LGFVFTL is ____.
Result: 77

Task: Which % inhibition at T=4H and T=24H FP 4h reading was recorded for the substance [CSME][2-AOC]YDFFVW[PRG] ?
Result: 98

====

Test system: HLA-A2::Mart-1(26-35) reactive T cells stimulated by T2 cells
Assay: T cell activation time course assay, IFNγ production (FACS), Mart-1 epitope
Assay type: cell-based
Details: peptide 0.5 pM, time point 4H
recorded_endpoint: Geometric mean IFN-γ in arbitrary fluorescence units 4H

Example results:
substance=[am-phg]LAGIGILT[PRG] system="HLA-A2::Mart-1(26-35) reactive T cells stimulated by T2 cells" endpoint_result="345 arbitrary fluorescence units"
substance=[am-phg][NVA]AGIGILT[ALG] system="HLA-A2::Mart-1(26-35) reactive T cells stimulated by T2 cells" endpoint_result="350 arbitrary fluorescence units"
substance=[am-phg][2-AOC]AGIGILT[PRG] system="HLA-A2::Mart-1(26-35) reactive T cells stimulated by T2 cells" endpoint_result="378 arbitrary fluorescence units"

Task: Recorded Geometric mean IFN-γ in arbitrary fluorescence units 4H for [am-phg][NVA]AGIGILT[PRG] with HLA-A2::Mart-1(26-35) reactive T cells stimulated by T2 cells, please?
Result: 342 arbitrary fluorescence units

====

Test system: SVYDFFVWL (TRP-2 180-188) reactive T cells
Assay: T cell activation time course assay, IFNγ production (FACS), TRP-2 epitope
Settings: 24H, peptide 5·10^3 pM
recorded_endpoint: % CD8+ T cells producing IFN-γ peptide concentrations in picomolar 24H 5·10^3 (%)
Answer in %, number only, no unit symbol.

substance=[PHG][CpALA]YDFFVWL unit_of_measure=% endpoint_result=30
substance=[am-phg][NVA]YDFFVWL unit_of_measure=% endpoint_result=34
substance=[am-phg][2-AOC]YDFFVWL unit_of_measure=% endpoint_result=31
substance=[CSME][2-AOC]YDFFVWL unit_of_measure=% endpoint_result=30

Task: So what's the measured % CD8+ T cells producing IFN-γ peptide concentrations in picomolar 24H 5·10^3 for this one? [PHG][NVA]YDFFVWL
Result: 29

Task: Query (substance): [PHG][2-AOC]YDFFVWL ; field requested: % CD8+ T cells producing IFN-γ peptide concentrations in picomolar 24H 5·10^3
Result: 30

====

Test system: SVYDFFVWL (TRP-2 180-188) reactive T cells
Experiment: T cell activation time course assay, IFNγ production (FACS), TRP-2 epitope
Details: 24H, peptide 0.5 pM
recorded_endpoint: % CD8+ T cells producing IFN-γ peptide concentrations in picomolar 24H 0.5 (%)
Answer with a number only, understood to be in %.

Worked cases, % CD8+ T cells producing IFN-γ peptide concentrations in picomolar 24H 0.5 given:
substance=[PHG][NVA]YDFFVW[PRG] unit_of_measure=% endpoint_result=1
substance=[am-phg][NVA]YDFFVWL unit_of_measure=% endpoint_result=1
substance=[am-phg][CpALA]YDFFVW[PRG] unit_of_measure=% endpoint_result=1
substance=[CSME][2-AOC]YDFFVWL unit_of_measure=% endpoint_result=1
substance=[am-phg][2-AOC]YDFFVWL unit_of_measure=% endpoint_result=0

Task: I'm curious: which % CD8+ T cells producing IFN-γ peptide concentrations in picomolar 24H 0.5 was measured for [am-phg][2-AOC]YDFFVW[ALG] tested on SVYDFFVWL (TRP-2 180-188) reactive T cells?
Result: 0

Task: Give recorded % CD8+ T cells producing IFN-γ peptide concentrations in picomolar 24H 0.5 with SVYDFFVWL (TRP-2 180-188) reactive T cells for the following substance: [PHG][2-AOC]YDFFVWL
Result: 0

====

Biological target: HLA-A0201 (Homo sapiens, UniProt P04439, D140Y/D185E/D98H/E176V/E277Q/G131W/G231S/I119V/I121R/I166T/I218V/L300P/L318F/N151K/N90K/P208A/P217A/Q86G/Q94H/R138H/R169H/T345S)
Assay type: binding
# % inhibition at T=4H and T=24H FP 24h per entry
Note: unit % is implicit; provide only the numeric part.

substance=[am-phg][NVA]AGIGILT[PRG] endpoint_result=64
substance=[CSME]AAGIGI[4-FPHE]TV endpoint_result=58

Task: Tell me the measured % inhibition at T=4H and T=24H FP 24h of [PHG][NVA]YDFFVW[ALG] , please.
Result: 73

Task: Recorded % inhibition at T=4H and T=24H FP 24h of [am-phg][NVA]YDFFVWL , please.
Result: 77

Task: I have this substance here, [CSME][CpALA]YDFFVW[PRG] , and I need its recorded % inhibition at T=4H and T=24H FP 24h.
Result: 83

Task: # lookup: % inhibition at T=4H and T=24H FP 24h of [am-phg][CpALA]LGFVFTL
Result: 91

Task: Value lookup for % inhibition at T=4H and T=24H FP 24h; key = [CSME][2-AOC]YDFFVWL
Result: 76

Task: Fill blank: measured % inhibition at T=4H and T=24H FP 24h of the substance [PHG][NVA]YDFFVW[PRG] is ____.
Result: 78

Task: Param item = [CSME][2-AOC]YDFFVW[PRG] ; retrieve measured % inhibition at T=4H and T=24H FP 24h.
Result: 89

Task: Item [am-phg][NVA]AGIGILT[ALG] has what recorded % inhibition at T=4H and T=24H FP 24h?
Result: 63

Task: Requested field: % inhibition at T=4H and T=24H FP 24h. Item: [PHG]I[NLE]GFVFTL
Result: 84

Task: Request the reported % inhibition at T=4H and T=24H FP 24h associated with [am-phg][2-AOC]YDFFVWL
Result: 87

Task: Give its % inhibition at T=4H and T=24H FP 24h value. Item: [CSME][2-AOC]AGIGILT[PRG]
Result: 70

Task: Would you kindly share the measured % inhibition at T=4H and T=24H FP 24h for [am-phg][BUTALA]LGFV[4-FPHE]TL ?
Result: 84

Task: Any idea what % inhibition at T=4H and T=24H FP 24h was measured for [PHG][CpALA]YDFFVWL ?
Result: 75

Task: Need % inhibition at T=4H and T=24H FP 24h, item [am-phg][2-AOC]AGIGILT[PRG]
Result: 77

Task: Need % inhibition at T=4H and T=24H FP 24h of [CSME][NVA]YDFFVW[PRG] , thanks.
Result: 78

Task: Bench note: what % inhibition at T=4H and T=24H FP 24h did [CSME][2-AOC]KDVEERV show?
Result: 56

====

Molecular target: HLA-A0201 (Homo sapiens, UniProt P04439, D140Y/D185E/D98H/E176V/E277Q/G131W/G231S/I119V/I121R/I166T/I218V/L300P/L318F/N151K/N90K/P208A/P217A/Q86G/Q94H/R138H/R169H/T345S)
Assay type: binding
Think of 70% as a floor: if % inhibition at T=4H and T=24H FP 24h stands on it or above, it is fulfilled; beneath it, not fulfilled.

Please review the following examples before continuing.
substance=[PHG][2-AOC]YDFFVW[PRG] group_label=fulfilled
substance=[CSME][NVA]AGIGILT[PRG] group_label="not fulfilled"
substance=[am-phg][BUTALA]LGFVFTL group_label=fulfilled

Task: Threshold query (% inhibition at T=4H and T=24H FP 24h >= 70%) on [PHG]AAGIGI[4-FPHE]T[NLE]
Result: not fulfilled

Task: Threshold query (% inhibition at T=4H and T=24H FP 24h >= 70%) on [am-phg]AAGIGI[4-FPHE]TV
Result: not fulfilled
